Target: UGT2B7 (Homo sapiens, UniProt P16662)
Construct: The typical incubation mixture contained human liver microsomes (0.5 mg/mL) along with SKN (10 μM); tissue BD Gentest; host or cells: human liver microsomes
Sequence (P16662 24-529): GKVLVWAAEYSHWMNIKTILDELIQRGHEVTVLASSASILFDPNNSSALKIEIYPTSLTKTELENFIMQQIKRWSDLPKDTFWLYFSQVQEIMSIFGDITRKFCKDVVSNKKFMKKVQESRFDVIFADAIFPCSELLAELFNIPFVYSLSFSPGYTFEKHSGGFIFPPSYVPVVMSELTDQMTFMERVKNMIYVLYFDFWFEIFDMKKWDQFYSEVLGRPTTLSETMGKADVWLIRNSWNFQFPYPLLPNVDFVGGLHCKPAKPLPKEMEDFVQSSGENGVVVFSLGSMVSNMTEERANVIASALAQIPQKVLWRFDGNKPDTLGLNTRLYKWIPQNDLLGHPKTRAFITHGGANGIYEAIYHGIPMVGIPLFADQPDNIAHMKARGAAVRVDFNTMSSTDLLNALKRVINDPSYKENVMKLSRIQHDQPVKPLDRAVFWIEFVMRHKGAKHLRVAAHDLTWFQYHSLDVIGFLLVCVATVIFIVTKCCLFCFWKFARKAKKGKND
Assay: UGT inhibition in human liver microsomes, zidovudine 5′-glucuronidation (AZTG)
Assay type: in vitro ADME
Details: pH 7.4, probe zidovudine (200 μM), SKN 10 μM, read-out: % Inhibition in Co-Incubation
Metric: inhibition at 10 μM (%)

[[record]]
compound = "COc1cc(O)c2c(c1)OC(c1ccc(O)cc1)CC2=O (racemic) [SKN, (+/−) 7-O-methylnaringenin]"
metric = "inhibition at 10 μM"
number = 15.6

